procedure_summary: chemical genetic growth profiling, strain panel (AID 1159580);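 also: tested at 20 µM; growth read once vehicle control cultures reached saturation at 30 °C; lower values mean less growth of the strain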
setup_conditions: S. cerevisiae deletion strains, growth OD, locus YOR316C, strain cot1
The whole screen tested about 5,500 compounds, of which about 2,000 (36%) were called active. About 18% were inconclusive and are not listed. Rule as the data show it: active = normalized growth mostly below about 0.91 (no sharp cut-off); inconclusive = no clear call, values can overlap the other calls; inactive = mostly above about 0.92. This is one part of the list.
Use one of these outcomes when replying: active, inactive

query: What outcome does the record of this test show for COC(=O)C[C@H]1C(C)(C)C(=O)[C@@H]2CC3=C4CC(OC)O[C@@H](c5ccoc5)[C@]4(C)CCC3[C@@]1(C)C2=O (some centres undefined) ?
result: inactive

query: What outcome does the record of this test show for O=C(/C=C/c1ccccc1)c1ccc(O)cc1 ?
result: active

query: What outcome does the record of this test show for Nc1nc(N)c2nc(-c3ccccc3)c(N)nc2n1 ?
result: inactive

query: What outcome does the record of this test show for CC(C)=CCc1c2c(c(O)c3c(=O)c(O)c(-c4ccccc4)oc13)C=CC(C)(C)O2 ?
result: active

Ref: PubChem BioAssay AID1159580
